Experiment description: Protein binding in human plasma at 3 uM after 5 hrs by equilibrium dialysis method
Type: ADME, cell-free
Assay setup: read-out: PPB (converted)
Metric name: fraction unbound at 5 h, 3 µM
Just the number.

Form field fraction unbound at 5 h, 3 µM, entry CN1CC[C@H](c2c(O)cc(O)c3c(=O)cc(/C=C/c4c(Cl)cccc4Cl)oc23)[C@H](O)C1 : 0.033

====

Measured on: CDK6/cyclin D1 (Homo sapiens, UniProt Q00534)
Sequence (P24385 whole entry): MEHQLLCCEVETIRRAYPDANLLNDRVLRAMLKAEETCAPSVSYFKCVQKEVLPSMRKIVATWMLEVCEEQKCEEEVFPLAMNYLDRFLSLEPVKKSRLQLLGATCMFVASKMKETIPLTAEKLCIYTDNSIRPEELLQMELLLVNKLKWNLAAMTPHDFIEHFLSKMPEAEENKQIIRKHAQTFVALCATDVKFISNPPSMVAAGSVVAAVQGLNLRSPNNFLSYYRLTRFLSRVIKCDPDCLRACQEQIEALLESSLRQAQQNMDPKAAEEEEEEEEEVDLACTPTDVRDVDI
Sequence (Q00534 whole entry): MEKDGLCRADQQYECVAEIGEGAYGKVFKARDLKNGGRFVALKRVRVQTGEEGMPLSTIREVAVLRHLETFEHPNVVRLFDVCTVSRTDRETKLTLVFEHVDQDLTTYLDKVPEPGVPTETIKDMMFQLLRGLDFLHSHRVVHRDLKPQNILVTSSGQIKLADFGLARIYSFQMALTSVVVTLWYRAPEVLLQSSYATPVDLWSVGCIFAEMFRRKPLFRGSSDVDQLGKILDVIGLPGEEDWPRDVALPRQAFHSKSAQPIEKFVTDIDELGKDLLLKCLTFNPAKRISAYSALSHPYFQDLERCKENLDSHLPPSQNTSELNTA
Experiment description: Inhibition of CDK6/cyclin D1 (unknown origin) after 30 mins in presence of [33P]-gamma-ATP by filter binding assay
Metric name: pIC50
When answering, recall that pIC50 equals minus log10 of the concentration in mol/L, and write that number alone.

Form field pIC50, entry CN1CC[C@H](c2c(O)cc(O)c3c(=O)cc(/C=C/c4c(Cl)cccc4Cl)oc23)[C@H](O)C1 : 7.35

====

System: MCF7
Experiment description: Growth inhibition of human MCF7 cells after 48 hrs by MTT assay
Assay type: functional
Assay setup: MCF7, 48 h
Measured log10(GI50), listed per entry.
Form field - Quantity: GI50; Unit: µM; Scale: log10

CN1CC[C@H](c2c(O)cc(O)c3c(=O)cc(/C=C/c4c(Cl)cccc4Cl)oc23)[C@H](O)C1    0.60
CN1CC[C@H](c2c(O)cc(O)c3c(=O)cc(/C=C/c4ccccc4)oc23)[C@H](O)C1    1.49
CN1CC[C@H](c2c(O)cc(O)c3c(=O)cc(/C=C/c4cccc(F)c4)oc23)[C@H](O)C1    0.48
CN1CC[C@H](c2c(O)cc(O)c3c(=O)cc(/C=C/c4c(F)c(F)c(F)c(F)c4F)oc23)[C@H](O)C1    0.90
CN1CC[C@H](c2c(O)cc(O)c3c(=O)cc(/C=C/c4ccc(Cl)cc4)oc23)[C@H](O)C1    1.69
CN1CC[C@H](c2c(O)cc(O)c3c(=O)cc(/C=C/c4ccccc4Cl)oc23)[C@H](O)C1    0.95
CN1CC[C@H](c2c(O)cc(O)c3c(=O)cc(/C=C/c4c5ccccc5cc5ccccc45)oc23)[C@H](O)C1    0.70
CN1CC[C@H](c2c(O)cc(O)c3c(=O)cc(/C=C/c4cccc(Cl)c4)oc23)[C@H](O)C1    0.30

Form field log10(GI50), entry CN1CC[C@H](c2c(O)cc(O)c3c(=O)cc(/C=C/c4ccccc4F)oc23)[C@H](O)C1 : 0.90

Form field log10(GI50), entry Cc1cc(=O)c2c(O)cc(O)c([C@H]3CCN(C)C[C@H]3O)c2o1 : 1.45

====

Experiment description: Intrinsic clearance in mouse liver microsomes assessed per mg of protein at 100 uM after 30 mins by LC-MS/MS analysis
Assay type: ADME, microsome
Assay setup: read-out: CLH
Metric name: microsomal CLint at 100 µM

Form field microsomal CLint at 100 µM, entry CN1CC[C@H](c2c(O)cc(O)c3c(=O)cc(/C=C/c4c(Cl)cccc4Cl)oc23)[C@H](O)C1 : < 8.8 µL/min/mg

====

Experiment description: AUC in Sprague-Dawley rat at 30 mg/kg, po by LC-MS/MS analysis
Format: ADME, organism-based
Assay setup: in vivo
Metric name: AUC
Express the reported value numerically, then name its unit.

Form field AUC, entry CN1CC[C@H](c2c(O)cc(O)c3c(=O)cc(/C=C/c4c(Cl)cccc4Cl)oc23)[C@H](O)C1 : 15.9 µM·h
